- experimentSummary: in vitro
- conditionDescription: both, SD, rat, plasma (EDTA, pooled)
readoutName: half-life at 20 μM

[[record]]
substancesmiles = "CC(=O)NCCCC[C@@H]1NC(=O)[C@H](Cc2c[nH]c3c(C)cccc23)NC(=O)[C@H]([C@@H](C)O)NC(=O)[C@H](CC(N)=O)NC(=O)[C@@H](NC(C)=O)C(C)(C)SSC(C)(C)[C@@H](C(=O)N[C@@H](Cc2ccc(OCCN)cc2)C(=O)N[C@@H](Cc2ccc3ccccc3c2)C(=O)N[C@@](C)(CCCCN)C(=O)N[C@@H](CCCCNC(C)=O)C(=O)N[C@@H](CC(N)=O)C(=O)N[C@H](CCCCN)C(N)=O)NC1=O"
valuemeasured = "> 24 h"


// provenance: patent US20260116921A1
